Measured On: Recombinant human HSD17B13 (Homo sapiens (Human), UniProt Q7Z5P4)
Sequence (Q7Z5P4 20-300): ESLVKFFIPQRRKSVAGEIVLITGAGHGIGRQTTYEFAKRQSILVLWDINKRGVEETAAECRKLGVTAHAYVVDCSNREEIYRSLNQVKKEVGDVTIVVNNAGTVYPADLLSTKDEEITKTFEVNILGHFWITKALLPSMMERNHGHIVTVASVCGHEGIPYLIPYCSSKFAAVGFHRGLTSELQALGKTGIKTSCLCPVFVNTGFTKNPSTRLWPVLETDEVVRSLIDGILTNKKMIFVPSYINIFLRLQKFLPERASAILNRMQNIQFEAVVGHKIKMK
Test Details: HSD17B13 rapid-fire mass spectrometry assay (RF/MS assay)
Condition Description: inhibition of HSD17B13; LTB4 10 μM, NAD+ 0.5 mM, RT 3 h; IC50 ranges A-E
Task for the reader: assign each of the following compounds its reported IC50.

GET /value?item= COc1cc(C(=O)O)ccc1NS(=O)(=O)c1cccc(-c2ccc(C3CCCCC3)cc2)c1F &field=IC50 returns < 100 nM

Field IC50 (entry COc1cc(C(=O)O)c(F)cc1NS(=O)(=O)c1csc(-c2ccc(C3CCC(C)(C)CC3)nc2)n1 ) reads 100 to 500 nM

Lab book: IC50 of COc1cc(C(=O)O)c(F)cc1NS(=O)(=O)c1cnc(-c2ccc([C@H]3CC[C@@H](C(C)(C)C)CC3)cc2)s1 noted as 100 to 500 nM

For record COc1ccc(NS(=O)(=O)c2cnc(-c3ccc(F)cc3)s2)cc1Cl the listed IC50 is 1000 to 100000 nM

// sample COc1cc(C(=O)O)c(F)cc1NS(=O)(=O)c1csc(-c2ccc(C3=CCC(C)(C)CC3)c(C(N)=O)c2)n1 , its IC50 was 500 to 1000 nM

Just so you know, measured IC50 for CCC[C@H]1CC[C@H]([C@H]2CC[C@H](c3nc(S(=O)(=O)Nc4cc(F)c(C(=O)O)cc4OC)cs3)CC2)CC1 came out at 100 to 500 nM

For record CC[C@H]1CC[C@H](c2ccc(-c3nc4cc(S(=O)(=O)Nc5cc(F)c(C(=O)O)cc5OC)ccc4s3)cc2)CC1 the listed IC50 is 100 to 500 nM

====

Measured On: Recombinant human HSD17B13 (Homo sapiens (Human))
Test Details: HSD17B13 rapid-fire mass spectrometry assay (RF/MS assay)
Condition Description: inhibition of HSD17B13; LTB4 10 μM, NAD+ 0.5 mM, RT 3 h; IC50 ranges A-E
pIC50: −log10 of the molar value.
Value Type: pIC50

Sample COc1cc(C(=O)O)c(F)cc1NS(=O)(=O)c1coc(-c2ccc(C3=CCC(C(F)(F)F)CC3)cc2C(F)(F)F)n1 (stereo not drawn) [Example 677] ; pIC50 observed: > 7.00

Form field pIC50, entry CCC1CCC(c2ccc(-c3nc(S(=O)(=O)Nc4cc(F)c(C(=O)O)cc4OC)cs3)c(C(F)(F)F)c2)CC1 (stereo not drawn) [Example 786] : 6.30 to 7.00

COc1cc(C(=O)O)c(F)cc1NS(=O)(=O)c1csc(-c2ccc(C3CC4CCC3CC4)cc2)n1 (stereo not drawn) [Example 550] has a reported pIC50 of 6.30 to 7.00

Record O=S(=O)(Nc1ccc(O)cc1)c1cnc(-c2ccc(F)cc2)s1 [Example 108] , field pIC50: 4.00 to 6.00

Noted for COc1cc(C(=O)O)c(F)cc1NS(=O)(=O)c1coc(-c2ccc(C3CCCCC3)cc2)n1 [Example 497] : its pIC50 reads 6.30 to 7.00

Record COc1cc(C(=O)O)ccc1NS(=O)(=O)c1coc(-c2ccc(C(C)C)cc2)n1 [Example 466] . Reported pIC50: > 7.00

COc1cc(C(=O)O)ccc1NS(=O)(=O)N1CCC(c2ccccn2)CC1 [Example 311] yielded pIC50 of 4.00 to 6.00

get_value(item= COc1cc(C(=O)O)c(F)cc1NS(=O)(=O)c1ccn(-c2ccc([C@H]3CC[C@H](C(C)C)CC3)cc2)n1 [Example 694] , readout=pIC50) returns > 7.00

Given item CCCCOc1c(F)c(-c2nc(S(=O)(=O)Nc3cc(F)c(C(=O)O)cc3OC)cs2)ccc1[C@H]1CC[C@H](C(C)C)CC1 [Example 589] , the value recorded as its pIC50 is 6.30 to 7.00

pIC50 recorded for this molecule, COc1cc(C(=O)O)ccc1NS(=O)(=O)c1cnc(-c2ccc([C@H]3CC[C@H](C(F)(F)F)CC3)cc2)s1 [Example 713] , is > 7.00

For this molecule ( COc1cc(C(=O)O)ccc1NS(=O)(=O)c1ccc(Oc2ccccc2OC)cc1 [Example 134] ), measured pIC50 is 6.00 to 6.30

# pIC50 of COc1cc(C(=O)O)ccc1NS(=O)(=O)N1CCN(c2cccc(-c3ccccc3)c2)CC1 [Example 321] = 4.00 to 6.00

Recorded pIC50 (molecule CCCOc1c(C2CCC(C)(C)CC2)ccc(-c2nc(S(=O)(=O)Nc3cc(F)c(C(=O)O)cc3OC)cs2)c1F [Example 579] ): 6.30 to 7.00

Entry COc1cc(C(=O)O)ccc1NS(=O)(=O)c1cccc(-c2ccc([C@H]3CC[C@@H](C(F)(F)F)CC3)cc2)c1F [Example 474] , pIC50 reported as 6.30 to 7.00

# pIC50 (molecule: COc1cc(C(=O)O)ccc1NS(=O)(=O)c1csc(/C=C/c2ccccc2)n1 [Example 167] ) is 6.30 to 7.00

get_value(item= COc1cc(C(=O)O)c(F)cc1NS(=O)(=O)c1csc(-c2cc(F)c(C3=CCC(C)(C)CC3)cc2F)n1 [Example 518] , readout=pIC50) returns 6.30 to 7.00

Entry under test: COc1cc(C(=O)O)ccc1NS(=O)(=O)c1cnc(-c2ccc(C#CC3CCCC3)cc2)s1 [Example 455] . Its pIC50 was 6.30 to 7.00

pIC50 recorded for this molecule, COc1cc(C(=O)O)ccc1NS(=O)(=O)c1csc(C#Cc2ccc(F)cc2)n1 [Example 184] , is 6.30 to 7.00

The reported pIC50 of the molecule COc1cc(C(=O)O)c(F)cc1NS(=O)(=O)c1cnc(-c2ccc([C@H]3CC[C@H](C(C)C)CC3)cc2)s1 [Example 769] was 6.30 to 7.00

Per the records, this molecule ( COc1cc(C(=O)O)c(F)cc1NS(=O)(=O)c1csc(-c2ccc([C@H]3CC[C@H](C(C)C)CC3)c(OC)c2F)n1 [Example 803] ) has pIC50 equal to > 7.00

// recorded pIC50 for COc1cc(C(=O)N(C)O)ccc1NS(=O)(=O)c1cnc(-c2ccc(F)cc2)s1 [Example 71] : 4.00 to 6.00

So, COc1cc(C(=O)O)ccc1NS(=O)(=O)N1CCN(C2CCCC2)CC1 [Example 315] ? Its pIC50 was 4.00 to 6.00

Field pIC50 (entry COc1cc(C(=O)O)c(F)cc1NS(=O)(=O)c1ccc2sc(-c3ccc(-c4ccccc4)cc3)nc2c1 [Example 668] ) reads 6.30 to 7.00

# molecule O=C(O)c1ccc(CNS(=O)(=O)c2cnc(-c3ccc(F)cc3)s2)cc1 [Example 29] ; its pIC50 = 4.00 to 6.00

Field pIC50 (entry COc1cc(C(=O)O)ccc1NS(=O)(=O)c1ccc(-c2ccc(C3=CCC(C)(C)CC3)cc2)s1 [Example 429] ) reads 6.30 to 7.00

Reported pIC50 of COc1cc(C(=O)O)c(F)cc1NS(=O)(=O)c1csc(-c2ccc(C3=CCC(C(C)C)CC3)cc2C(F)(F)F)n1 (stereo not drawn) [Example 741] : > 7.00

Form field pIC50, entry COc1cc(C(=O)O)c(F)cc1NS(=O)(=O)c1csc(C#Cc2ccc(Cl)cc2)n1 [Example 228] : > 7.00

Data point: O=C(O)c1ccc(NS(=O)(=O)c2ccc(Oc3ccc(S(=O)(=O)Nc4ccc(C(=O)O)cc4O)cc3)cc2)c(O)c1 [Example 172] ; pIC50 = 6.30 to 7.00

What the record says about COc1cc(C(=O)O)c(F)cc1NS(=O)(=O)c1csc(-c2ccc(-c3ccc(C4CCC(C(C)C)CC4)cc3C(F)(F)F)cc2C(F)(F)F)n1 (stereo not drawn) [Example 753] : pIC50 is 6.30 to 7.00

The recorded pIC50 for entry COc1cc(C(=O)O)ccc1NS(=O)(=O)c1csc(C#Cc2ccc(C(C)(C)C)cc2)n1 [Example 188] equals > 7.00

====

Measured On: Recombinant human HSD17B13 (Homo sapiens (Human), UniProt Q7Z5P4)
Test Details: HSD17B13 rapid-fire mass spectrometry assay (RF/MS assay)
Condition Description: inhibition of HSD17B13; LTB4 10 μM, NAD+ 0.5 mM, RT 3 h; IC50 ranges A-E
Give measured IC50 for each item. Keep answers brief.

// IC50 lookup, compound = O=C(O)c1ccc(NS(=O)(=O)c2cnc(-c3ccc(F)cc3)s2)c(C2CC2)c1 , result: 1000 to 100000 nM

COc1cc(C(=O)O)c(F)cc1NS(=O)(=O)c1csc(-c2ccc(-c3ccc(C45CC6C[C@H](C4)C[C@H](C6)C5)cc3)cc2C(F)(F)F)n1 yielded IC50 of < 100 nM

What the record says about COc1cc(C(=O)O)c(F)cc1NS(=O)(=O)c1csc(-c2ccc(-c3ccc(C45CC6C[C@H](C4)C[C@H](C6)C5)cc3)c(C(F)(F)F)c2)n1 : IC50 is 100 to 500 nM

COc1cc(C(=O)O)c(F)cc1NS(=O)(=O)c1csc(-c2ccc(C3=CCC(C(F)(F)F)CC3)cc2C(F)(F)F)n1 (stereo not shown) has a reported IC50 of < 100 nM

Looking up COc1cc(C(=O)O)c(F)cc1NS(=O)(=O)c1cccc(-c2ccc(C3=CCC(C(C)(C)C)CC3)cc2)c1F (stereo not shown) , I see its IC50 listed as < 100 nM

What the record says about COc1cc(C(=O)O)c(F)cc1NS(=O)(=O)c1csc(-c2ccc(-c3cnoc3)cc2)n1 : IC50 is 100 to 500 nM

get_value(item= Cc1sc(-c2ccc(F)cc2)nc1S(=O)(=O)Nc1ccc(C(=O)O)cc1 , readout=IC50) returns 1000 to 100000 nM

Lab note: O=C(O)c1cc2c(cc1F)OCCN2S(=O)(=O)c1ccc(F)cc1 gave IC50 of 1000 to 100000 nM

Consider COc1cc(C(=O)O)ccc1NS(=O)(=O)c1csc(N2CC=C(c3ccccc3)C2)n1 . Its measured IC50 is 100 to 500 nM

The reported value for COc1cc(C(=O)O)ccc1NS(=O)(=O)c1cnc(-c2ccc(C3CCC4(CC3)CC4)cc2)s1 in terms of IC50 is 100 to 500 nM

Query COc1cc(C(=O)O)ccc1NS(=O)(=O)c1coc(-c2ccc([C@H]3CC[C@H](C(F)(F)F)CC3)cc2)n1 yields IC50 of 100 to 500 nM

Noted for COc1cc(C(=O)O)c(F)cc1NS(=O)(=O)c1csc(-c2ccc(C34CC5C[C@H](C3)C[C@H](C5)C4)cc2)n1 : its IC50 reads 100 to 500 nM

For COc1cc(C(=O)O)ccc1NS(=O)(=O)c1csc(N2CCC[C@@H](Cc3ccc(F)cc3)C2)n1 the compound record lists IC50 as 1000 to 100000 nM

Looking up COC(=O)c1ccc(NS(=O)(=O)c2cnc(-c3ccc(F)cc3)s2)cc1C , I found its IC50 recorded as 1000 to 100000 nM

So for COc1cc(C(=O)O)c(F)cc1NS(=O)(=O)c1csc(-c2ccc(C3=CCC(C)(C)CC3)c3[nH]ncc23)n1 , the logged IC50 turned out to be 100 to 500 nM

Field IC50 (entry COc1cc(C(=O)O)c(F)cc1NS(=O)(=O)c1csc(C#Cc2ccccc2C)n1 ) reads 100 to 500 nM

COc1cc(C(=O)O)ccc1NS(=O)(=O)c1csc(N2CCOCC2)n1 has a reported IC50 of 1000 to 100000 nM

Kindly note the recorded IC50 for COc1c(NS(=O)(=O)c2csc(-c3ccc(C4CCC(C)(C)CC4)cc3)n2)ccc(C(=O)O)c1F , which is 100 to 500 nM

Kindly note the recorded IC50 for COc1ccc(C#Cc2nc(S(=O)(=O)Nc3ccc(C(=O)O)cc3OC)cs2)cc1 , which is 100 to 500 nM
